Recorded composite z-score, one value per entry.
ASSAY_COMMENT: compound binding in COS7 lysate, probe aLAP1, primary screen, cell lysate, small-molecule microarray (AID 1124);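 also: lysate comes from COS7 cells expressing LAP1 and is applied at 0.3 µg/mL; score merges spot fluorescence near 667 nm with signal-to-noise over triplicate slides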
ASSAY_CONDITIONS: probe aLAP1, fluorescence, higher = more signal
OUTCOME_MEASURE: composite z-score

compound=CC(=O)Nc1ccc([C@H]2[C@H](C)CC[C@H]3C(=O)N4[C@@H](CC[C@@H](C)[C@@H]4c4ccc(NC(C)=O)cc4)C(=O)N32)cc1 observed_result=0.264
compound="C[C@H]1C2[C@H](Cc3ccccc3)NC(=O)[C@]23C(=O)N[C@H](Cc2ccccc2)C(=O)N[C@@H](Cc2ccccc2)C(=O)NC/C=C\\C/C=C/C3[C@@H]2O[C@]12C (some centres undefined)" observed_result=0.0901
compound="Cc1ccccc1C(O)C1C=CC2C(=O)N(c3ccccc3)C(=O)C2N1Nc1ccc(C#N)cc1 (centres undefined)" observed_result=1.37
compound=C#CCCCON=C1C[C@@H](O)[C@@H](O)[C@@H]2[C@@H]3C(=O)N(Cc4ccc5c(c4)OCO5)C(=O)[C@@H]3CC[C@H]12 observed_result=0.786
